The values you see were collected from the supplement of paper PMC9170038.

- Tested on: MS2 coat protein
- ASSAY SUMMARY: apparent KD of MS2 coat protein; designed switch direction (-1 OFF switch, 1 ON switch): -1; higher = weaker reporter binding
- CONDITION INFO: input ligand: microRNA oligo, concentration not stated
Decision: apparent KD of MS2 coat protein compared against 40 nM; not below it gives 1 (yes), below it gives 0 (no).

AAAACACAUGAGGAUCACCCAUGUGAGGAUAUGCUAUGGAAAAUAAAAAUAAAACAUAGCAGAAGGCACAAAGG [Denovo 18] (Eterna round: R96, puzzle: Exclusion 1) : 1 (yes)
UACAUGAGGAUCACCCAUGUUUUGUCGUGUAUGGUAUUUAUCUAGGAUAUCAAUGUAUGUAUUUAUGAGAAGGAGAAUAUUAAU [JMF's solution 43] (Eterna round: R96, puzzle: Exclusion NG 3) : 0 (no)
AACGAUACGCUCAUAAGAACAUGAGGAUCACCCAUGUGUGGUGAGGAUAUCCACCCAGAGGGAAAGGAGAAGGUACCAGUGGAC [Orsoenbere] (Eterna round: R96, puzzle: Exclusion NG 3) : 1 (yes)
UUUUUUUUGCGAGGAUAUGCUUUUAGUUAGUUAGCAGAAGGCGCGUUUCUUUUCUCCUCUUCUUACAUGAGGAUCACCCAUGUU [JR_ExcNG1_Sub034] (Eterna round: R96, puzzle: Exclusion NG 1) : 0 (no)
UGUCUUCAUAUCACAUGAGGAUCACCCAUGUUAUUCAUCUCGUAGGAUAUCGAGGUUUAUUAUUUCGAGAAGGACGUAUUGUUU [JR_ExcNG3_Sub076] (Eterna round: R96, puzzle: Exclusion NG 3) : 1 (yes)

Query: Quick check: does CGAUGCUCGAGUCGACAUGAGGAUCACCCAUGUAGAGUUAGCGAGGAUAUCGGAGACACAUAGUAUGAGAAGGCGCGAACCUGA [Ex NG3 #19] (Eterna round: R96, puzzle: Exclusion NG 3) have apparent KD of MS2 coat protein greater than or equal to 40 nM?
Reply: 0 (no)

Query: Quick check: does UGAUCUAGCGGAGGAUAUACAUGAGGAUCACCCAUGUAGAUAACAUGACCGUAGUCGUGUAUCGUGUAGAAGGCCGCUAGAUCU [JL ENG2 3.67] (Eterna round: R96, puzzle: Exclusion NG 2) have apparent KD of MS2 coat protein greater than or equal to 40 nM?
Reply: 0 (no)
